Recorded values, source ChEMBL document CHEMBL3994587.

System: Bacillus subtilis
Experiment: Antibacterial activity against Bacillus subtilis RCMB 000109 assessed as zone of inhibition at 30 ug/ml
Format: functional
Details: read-out: IZ
Assign true to entries whose zone of inhibition at 30 µg/mL meets or exceeds 20 mm; assign false to the rest.

Nc1nn2c(-c3ccco3)cc(-c3ccco3)nc2c1/N=N/c1ccccc1; false

Has "Cc1ccc(/N=N/c2c(N)nn3c(-c4ccco4)cc(-c4ccco4)nc23)cc1" a recorded zone of inhibition at 30 µg/mL greater than or equal to 20 mm?
true

Has CC1(C)S[C@@H]2[C@H](NC(=O)Cc3ccccc3)C(=O)N2[C@H]1C(=O)O [PENICILLIN G] a recorded zone of inhibition at 30 µg/mL greater than or equal to 20 mm?
true

Has "Nc1nn2c(-c3cccs3)cc(-c3cccs3)nc2c1/N=N/c1ccccc1" a recorded zone of inhibition at 30 µg/mL greater than or equal to 20 mm?
false

Has CN[C@@H]1[C@H](O[C@H]2[C@H](O[C@H]3[C@H](O)[C@@H](O)[C@H](N=C(N)N)[C@@H](O)[C@@H]3N=C(N)N)O[C@@H](C)[C@]2(O)C=O)O[C@@H](CO)[C@H](O)[C@H]1O [STREPTOMYCIN] a recorded zone of inhibition at 30 µg/mL greater than or equal to 20 mm?
true
